Numbers sourced from patent US11325884B2.

# system-under-test: lysine gingipain (Kgp) (Porphyromonas gingivalis (strain ATCC 33277 / DSM 20709 / CIP 103683 / JCM 12257 / NCTC 11834 / 2561), UniProt B2RLK2)
# experiment-summary: Inhibition of lysine gingipain, fluorogenic assay (Z-His-Glu-Lys-MCA)
# Format: biochemical
# study-conditions: Table 3; read-out: IC50 (nM) Kgp
test-readout: IC50

// solved cases for IC50 follow
**Q:** For the compound NCCCCC(NC(=O)C1CCCC1)C(=O)COCC(F)(F)F (stereo not drawn) [Compound 17a] , give its reported IC50.
**A:** > 100 nM

**Q:** State its IC50: NCCCC[C@@H](NC(=O)C1CCCC1)C(=O)COc1c(F)c(F)cc(F)c1F [Compound 74, reference compound]
**A:** ≤ 0.05 nM

Then this compound:
**Q:** Please list IC50 recorded for the compound CSCC(=O)C(CCCCN)NC(=O)C1CCCC1 (stereo not drawn) [Compound 16a]
**A:** > 100 nM
